// provenance: patent US6048882A

Overview of reported inhibition in vivo at 0.001 mg/kg across a group of compounds:
Test system: experimental hepatopathy models prepared by administering carbon tetrachloride
Experiment: Inhibitory action on hepatopathy in hepatopathy models by carbon tetrachloride (lipid emulsion; serum GPT and GOT)
Assay type: in vivo, ddY strain male mice
Conditions: Mus musculus, iv, 20 h, i.v., dose 1 μg/kg, one hour before carbon tetrachloride, read-out: GPT inhibition
Counter-ions that a name gives are not always drawn.
parameter: inhibition in vivo at 0.001 mg/kg (%)

compound="CC(C)=CCC/C(C)=C/CC/C(C)=C/CC/C(C)=C/CNCc1ccc2c(c1)OCO2 [Compound 1, hydrochloride]" numeric_readout=21
compound="CC(C)=CCC/C(C)=C/CC/C(C)=C/CC/C(C)=C/CC/C(C)=C/CC/C(C)=C/CC/C(C)=C/CC/C(C)=C/CC/C(C)=C/CNCc1ccccc1 [Compound 7, N-solanesylbenzylamine hydrochloride]" numeric_readout=42
compound="CC(C)=CCC/C(C)=C/CC/C(C)=C/CC/C(C)=C/CC/C(C)=C/CC/C(C)=C/CC/C(C)=C/CNCc1ccc2c(c1)OCO2 [Compound 4, hydrochloride]" numeric_readout=22
compound="CC(C)=CCC/C(C)=C/CC/C(C)=C/CC/C(C)=C/CC/C(C)=C/CC/C(C)=C/CC/C(C)=C/CC/C(C)=C/CC/C(C)=C/CNCc1ccc2c(c1)OCO2 [Compound 6, N-solanesylpiperonylamine hydrochloride]" numeric_readout=40
compound=CC(C)=CCC/C(C)=C/CC/C(C)=C/CC/C(C)=C/CC/C(C)=C/CC/C(C)=C/CC/C(C)=C/CC/C(C)=C/CC/C(C)=C/CN(C)Cc1ccc2c(c1)OCO2 numeric_readout=31
compound="CC(C)=CCC/C(C)=C/CC/C(C)=C/CC/C(C)=C/CC/C(C)=C/CC/C(C)=C/CC/C(C)=C/CC/C(C)=C/CC/C(C)=C/CC/C(C)=C/CC/C(C)=C/CNCc1ccc2c(c1)OCO2 [Compound 21, hydrochloride]" numeric_readout=33

---

Tested on: experimental hepatopathy models prepared by D-galactosamine administration
Test: Inhibitory action on hepatopathy in hepatopathy models by D-galactosamine (serum GPT and GOT)
Assay type: in vivo, Wistar strain male mice
Settings: iv, 24 h; lipid emulsion, i.v., dose 30 μg/kg, 2 hours after D-galactosamine; read-out: GOT inhibition
Structures can show the parent of a compound that is named as a salt.
Overview of reported inhibition in vivo at 0.03 mg/kg across a group of compounds:
parameter: inhibition in vivo at 0.03 mg/kg (%)

compound="CC(C)=CCC/C(C)=C/CC/C(C)=C/CC/C(C)=C/CC/C(C)=C/CC/C(C)=C/CC/C(C)=C/CC/C(C)=C/CC/C(C)=C/CNCc1cccs1 [Compound 25, N-solanesyl-2-thienylamine hydrochloride]" parameter="inhibition in vivo at 0.03 mg/kg" numeric_readout=32
compound="CC(C)=CCC/C(C)=C/CC/C(C)=C/CC/C(C)=C/CC/C(C)=C/CC/C(C)=C/CC/C(C)=C/CC/C(C)=C/CC/C(C)=C/CNCc1cccnc1 [Compound 26, dihydrochloride]" parameter="inhibition in vivo at 0.03 mg/kg" numeric_readout=40
compound="CC(C)=CCC/C(C)=C/CC/C(C)=C/CC/C(C)=C/CC/C(C)=C/CC/C(C)=C/CC/C(C)=C/CC/C(C)=C/CC/C(C)=C/CNCc1ccc(O)c(O)c1 [Compound 11, hydrochloride]" parameter="inhibition in vivo at 0.03 mg/kg" numeric_readout=41
compound="COc1c(C)c(CNC/C=C(\\C)CC/C=C(\\C)CC/C=C(\\C)CC/C=C(\\C)CC/C=C(\\C)CC/C=C(\\C)CC/C=C(\\C)CC/C=C(\\C)CCC=C(C)C)c(OC)c(OC)c1OC [Compound 14, hydrochloride]" parameter="inhibition in vivo at 0.03 mg/kg" numeric_readout=55
compound="CC(C)=CCC/C(C)=C/CC/C(C)=C/CC/C(C)=C/CC/C(C)=C/CC/C(C)=C/CC/C(C)=C/CC/C(C)=C/CC/C(C)=C/CNCCCc1ccc2c(c1)OCO2 [Compound 18, hydrochloride]" parameter="inhibition in vivo at 0.03 mg/kg" numeric_readout=22
compound="CC(C)=CCC/C(C)=C/CC/C(C)=C/CC/C(C)=C/CC/C(C)=C/CC/C(C)=C/CC/C(C)=C/CC/C(C)=C/CC/C(C)=C/CNCc1ccc(C)cc1 [Compound 10, hydrochloride]" parameter="inhibition in vivo at 0.03 mg/kg" numeric_readout=54

---

Test system: experimental hepatopathy models prepared by administering carbon tetrachloride
Test: Inhibitory action on hepatopathy in hepatopathy models by carbon tetrachloride (lipid emulsion; serum GPT and GOT)
Format: in vivo, ddY strain male mice
Conditions: Mus musculus, iv, 20 h, i.v., dose 1 μg/kg, one hour before carbon tetrachloride, read-out: GOT inhibition
Where a name gives a salt, the structure may show the parent alone.
inhibition in vivo at 0.001 mg/kg of 40% or higher: satisfied. Under 40%: not satisfied.

compound="CC(C)=CCC/C(C)=C/CC/C(C)=C/CC/C(C)=C/CC/C(C)=C/CC/C(C)=C/CC/C(C)=C/CNCc1ccc2c(c1)OCO2 [Compound 4, hydrochloride]" assigned_category="not satisfied"
compound="CC(C)=CCC/C(C)=C/CC/C(C)=C/CC/C(C)=C/CC/C(C)=C/CC/C(C)=C/CC/C(C)=C/CC/C(C)=C/CC/C(C)=C/CNCc1ccccc1 [Compound 7, N-solanesylbenzylamine hydrochloride]" assigned_category=satisfied
compound="CC(C)=CCC/C(C)=C/CC/C(C)=C/CC/C(C)=C/CC/C(C)=C/CC/C(C)=C/CC/C(C)=C/CC/C(C)=C/CC/C(C)=C/CN(C)Cc1ccc2c(c1)OCO2 [Compound 19, N-methyl-N-solanesylpiperonylamine]" assigned_category=satisfied
compound="CC(C)=CCC/C(C)=C/CC/C(C)=C/CC/C(C)=C/CC/C(C)=C/CC/C(C)=C/CC/C(C)=C/CC/C(C)=C/CC/C(C)=C/CC/C(C)=C/CC/C(C)=C/CNCc1ccc2c(c1)OCO2 [Compound 21, hydrochloride]" assigned_category="not satisfied"
compound="CC(C)=CCC/C(C)=C/CC/C(C)=C/CC/C(C)=C/CNCc1ccc2c(c1)OCO2 [Compound 1, hydrochloride]" assigned_category="not satisfied"
compound="CC(C)=CCC/C(C)=C/CC/C(C)=C/CC/C(C)=C/CC/C(C)=C/CC/C(C)=C/CC/C(C)=C/CC/C(C)=C/CC/C(C)=C/CNCc1ccc2c(c1)OCO2 [Compound 6, N-solanesylpiperonylamine hydrochloride]" assigned_category=satisfied

---

Tested on: experimental hepatopathy models prepared by D-galactosamine administration
Experiment: Inhibitory action on hepatopathy in hepatopathy models by D-galactosamine (serum GPT and GOT)
Format: in vivo, Wistar strain male mice
Details: iv, 24 h; lipid emulsion, i.v., dose 30 μg/kg, 2 hours after D-galactosamine; read-out: GOT inhibition
Structures can show the parent of a compound that is named as a salt.
inhibition in vivo at 0.03 mg/kg of 40% or higher: y. Under 40%: n.

compound="CC(C)=CCC/C(C)=C/CC/C(C)=C/CC/C(C)=C/CC/C(C)=C/CC/C(C)=C/CC/C(C)=C/CC/C(C)=C/CC/C(C)=C/CNc1ccc2c(c1)OCO2 [Compound 16, hydrochloride]" assigned_category=y
compound="CC(C)=CCC/C(C)=C/CC/C(C)=C/CC/C(C)=C/CC/C(C)=C/CC/C(C)=C/CC/C(C)=C/CC/C(C)=C/CC/C(C)=C/CNCCc1ccc2c(c1)OCO2 [Compound 17, Hydrochloride]" assigned_category=n
compound="CC(C)=CCC/C(C)=C/CC/C(C)=C/CC/C(C)=C/CC/C(C)=C/CC/C(C)=C/CC/C(C)=C/CC/C(C)=C/CC/C(C)=C/CNCc1ccc(Cl)cc1 [Compound 9, hydrochloride]" assigned_category=y
compound="COc1cc(CNC/C=C(\\C)CC/C=C(\\C)CC/C=C(\\C)CC/C=C(\\C)CC/C=C(\\C)CC/C=C(\\C)CC/C=C(\\C)CC/C=C(\\C)CCC=C(C)C)ccc1O [Compound 12, hydrochloride]" assigned_category=y
compound="CC(C)=CCC/C(C)=C/CC/C(C)=C/CC/C(C)=C/CC/C(C)=C/CC/C(C)=C/CC/C(C)=C/CC/C(C)=C/CC/C(C)=C/CNCc1ccco1 [Compound 24, hydrochloride]" assigned_category=n

---

Tested on: experimental hepatopathy models prepared by D-galactosamine administration
Experiment: Inhibitory action on hepatopathy in hepatopathy models by D-galactosamine (serum GPT and GOT)
Assay type: in vivo, Wistar strain male mice
Conditions: iv, 24 h; lipid emulsion, i.v., dose 30 μg/kg, 2 hours after D-galactosamine; read-out: GPT inhibition
Counter-ions that a name gives are not always drawn.
Overview of reported inhibition in vivo at 0.03 mg/kg across a group of molecules:
parameter: inhibition in vivo at 0.03 mg/kg (%)

molecule="CC(C)=CCC/C(C)=C/CC/C(C)=C/CC/C(C)=C/CC/C(C)=C/CC/C(C)=C/CC/C(C)=C/CC/C(C)=C/CC/C(C)=C/CNc1ccc2c(c1)OCO2 [Compound 16, hydrochloride]" assayed_system="experimental hepatopathy models prepared by D-galactosamine administration" readout_unit=% numeric_readout=43
molecule="CC(C)=CCC/C(C)=C/CC/C(C)=C/CC/C(C)=C/CC/C(C)=C/CC/C(C)=C/CC/C(C)=C/CC/C(C)=C/CC/C(C)=C/CNCc1ccc(Cl)cc1 [Compound 9, hydrochloride]" assayed_system="experimental hepatopathy models prepared by D-galactosamine administration" readout_unit=% numeric_readout=53
molecule="CC(C)=CCC/C(C)=C/CC/C(C)=C/CC/C(C)=C/CC/C(C)=C/CC/C(C)=C/CC/C(C)=C/CC/C(C)=C/CC/C(C)=C/CNCc1ccco1 [Compound 24, hydrochloride]" assayed_system="experimental hepatopathy models prepared by D-galactosamine administration" readout_unit=% numeric_readout=25
